Hello, the source for this data is paper PMC10988762, in case you need it.

Reported hemolysis at 48 h, 5 x P. falciparum 3D7-IC50 is given for each of the following molecules.
TEST METHOD NOTES: in vitro
MEASUREMENT CONTEXT: human, uninfected RBCs (red blood cells), 1% hematocrit
EXPERIMENTAL READOUT: hemolysis at 48 h, 5 x P. falciparum 3D7-IC50 (%)

MOLECULE | UNIT OF MEASURE | RESULT VALUE
COc1ccc2c(c1)c(C1=C(c3c[nH]c4ccccc34)C(=O)NC1=O)cn2CCCN(C)C [Go6983] | % | 5
Clc1ccc(C(c2ccc(Cl)cc2)n2cc[n+](CC(OCc3ccc(Cl)cc3Cl)c3ccc(Cl)cc3Cl)c2)cc1 (centres unmarked) [Calmidazolium] | % | 7
Cc1ccc(NC(=O)c2ccc(CN3CC[C@H](N(C)C)C3)c(C(F)(F)F)c2)cc1Nc1nccc(-c2cncnc2)n1 [Bafetinib] | % | 6
Cn1nccc1Nc1nccc(-c2cc3c(s2)C(C)(C)N(CCN2CCOCC2)C3=O)n1 [LY3214996] | % | 13
CCCCCCCCc1ccc(CCC(N)(CO)CO)cc1 [FTY720] | % | 23
Oc1ccc2ccccc2c1SSc1c(O)ccc2ccccc12 [IPA-3] | % | 11
CCCC[C@@H](C=O)NC(=O)[C@H](CC(C)C)NC(=O)OCc1ccccc1 [Calpeptin] | % | 8
COc1ccc(S(=O)(=O)N(CCO)c2ccccc2CN(C)C/C=C/c2ccc(Cl)cc2)cc1 [KN-93 Phosphate] | % | 7

---

Tested on: uninfected RBCs
TEST METHOD NOTES: Cellular phosphatidylserine exposure assay (annexin V flow cytometry)
MEASUREMENT CONTEXT: 48h, 5x P. falciparum 3D7-IC50, % of RBCs, mean of 2 experiments
Counter-ions that a name gives are not always drawn.
EXPERIMENTAL READOUT: Phosphatidylserine exposure (%) 48h

COMPOUND | TARGET ENTITY | EXPERIMENTAL READOUT | RESULT VALUE
CN(C)C[C@@H]1CCn2cc(c3ccccc32)C2=C(C(=O)NC2=O)c2cn(c3ccccc23)CCO1 [Ruboxistaurin] | uninfected RBCs | Phosphatidylserine exposure (%) 48h | 2
Cn1nccc1Nc1nccc(-c2cc3c(s2)C(C)(C)N(CCN2CCOCC2)C3=O)n1 [LY3214996] | uninfected RBCs | Phosphatidylserine exposure (%) 48h | 2
Nc1nc(N)c2nc(-c3cccc(O)c3)c(-c3cccc(O)c3)nc2n1 [TG-100-115] | uninfected RBCs | Phosphatidylserine exposure (%) 48h | 3
CN(C)CCOc1ccc(-c2nc(-c3ccncc3)c(-c3ccc4c(c3)CC/C4=N\O)[nH]2)cc1 [SB590885] | uninfected RBCs | Phosphatidylserine exposure (%) 48h | 2
Oc1ccc2ccccc2c1SSc1c(O)ccc2ccccc12 [IPA-3] | uninfected RBCs | Phosphatidylserine exposure (%) 48h | 35
Cc1ccc(NC(=O)c2ccc(CN3CCN(C)CC3)cc2)cc1Nc1nccc(-c2cccnc2)n1 [Imatinib mesylate] | uninfected RBCs | Phosphatidylserine exposure (%) 48h | 2
COc1ccc2c(c1)CCC1C2CCC2(C)C(NCCCCCCN3C(=O)C=CC3=O)CCC12 (centres unmarked) [U-73122] | uninfected RBCs | Phosphatidylserine exposure (%) 48h | 9
CN1CCN(c2nc(C3=C(c4c[nH]c5ccccc45)C(=O)NC3=O)c3ccccc3n2)CC1 [Sotrastaurin] | uninfected RBCs | Phosphatidylserine exposure (%) 48h | 2

---

TEST METHOD NOTES: in vitro
MEASUREMENT CONTEXT: human
EXPERIMENTAL READOUT: hemolysis at 24 h, 5 x P. falciparum 3D7-IC50 (%)

STRUCTURE NOTATION | UNIT OF MEASURE | RESULT VALUE
CNC(=O)c1cc(Oc2ccc(NC(=O)Nc3ccc(Cl)c(C(F)(F)F)c3)cc2)ccn1 | % | -6
CC(C)CC(O)(CC(C)C)c1cnn(C(=O)N2CCCC2)n1 | % | -6
C[C@@H](Oc1cc(-c2cnn(C3CCNCC3)c2)cnc1N)c1c(Cl)ccc(F)c1Cl | % | 1
O=C(O)c1ccc2c(c1)nc(Nc1cccc(Cl)c1)c1ccncc12 | % | -4
N#CC(=C(N)Sc1ccccc1N)C(C#N)=C(N)Sc1ccccc1N | % | 3

---

Each entry below carries its recorded Phosphatidylserine exposure (%) 48h.
System: uninfected RBCs
TEST METHOD NOTES: Cellular phosphatidylserine exposure assay (annexin V flow cytometry)
MEASUREMENT CONTEXT: 48h, 5x P. falciparum 3D7-IC50, % of RBCs, mean of 2 experiments

STRUCTURE NOTATION | Phosphatidylserine exposure (%) 48h
COc1ccc2c(c1)c(C1=C(c3c[nH]c4ccccc34)C(=O)NC1=O)cn2CCCN(C)C | 2
CC(=O)Nc1cccc(-n2c(=O)n(C3CC3)c(=O)c3c(Nc4ccc(I)cc4F)n(C)c(=O)c(C)c32)c1 | 2
CC(C)CC(O)(CC(C)C)c1cnn(C(=O)N2CCCC2)n1 | 2

---

System: uninfected RBCs
TEST METHOD NOTES: Cellular phosphatidylserine exposure assay (annexin V flow cytometry);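 further: flow cytometry recording 10,000 events per condition, gated on single cells, with the two experiments using blood from separate donors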
MEASUREMENT CONTEXT: 48h, 5x P. falciparum 3D7-IC50, % of RBCs, mean of 2 experiments
EXPERIMENTAL READOUT: Phosphatidylserine exposure (%) 48h

COMPOUND | RESULT VALUE
COc1ccc(S(=O)(=O)N(CCO)c2ccccc2CN(C)C/C=C/c2ccc(Cl)cc2)cc1 [KN-93 Phosphate] | 2%
Clc1ccc(C(c2ccc(Cl)cc2)n2cc[n+](CC(OCc3ccc(Cl)cc3Cl)c3ccc(Cl)cc3Cl)c2)cc1 (centres unmarked) | 4%
Cc1ccc(NC(=O)c2ccc(CN3CC[C@H](N(C)C)C3)c(C(F)(F)F)c2)cc1Nc1nccc(-c2cncnc2)n1 | 2%
CCCCCCCCc1ccc(CCC(N)(CO)CO)cc1 | 21%
Clc1cccc(Cl)c1CSc1nnc(-c2cnccn2)s1 | 100. %
CCCC[C@@H](C=O)NC(=O)[C@H](CC(C)C)NC(=O)OCc1ccccc1 | 2%
C[C@@H](Oc1cc(-c2cnn(C3CCNCC3)c2)cnc1N)c1c(Cl)ccc(F)c1Cl | 2%
O=C(O)c1ccc2c(c1)nc(Nc1cccc(Cl)c1)c1ccncc12 | 2%

---

Tested on: uninfected RBCs
MEASUREMENT CONTEXT: 5x P. falciparum 3D7-IC50; 24, 48, 72h

COMPOUND | hemolysis of RBCs, in words
O=C(O)c1ccc2c(c1)nc(Nc1cccc(Cl)c1)c1ccncc12 [CX-4945] | similarly low levels
CC(=O)Nc1cccc(-n2c(=O)n(C3CC3)c(=O)c3c(Nc4ccc(I)cc4F)n(C)c(=O)c(C)c32)c1 [Trametinib] | similarly low levels

---

TEST METHOD NOTES: in vitro
MEASUREMENT CONTEXT: human, uninfected RBCs (red blood cells), 1% hematocrit
Structures can show the parent of a compound that is named as a salt.
Measured hemolysis at 48 h, 5 x P. falciparum 3D7-IC50, listed per entry.
EXPERIMENTAL READOUT: hemolysis at 48 h, 5 x P. falciparum 3D7-IC50 (%)

COMPOUND | RESULT VALUE
CN(C)C[C@@H]1CCn2cc(c3ccccc32)C2=C(C(=O)NC2=O)c2cn(c3ccccc23)CCO1 [Ruboxistaurin] | 6
CN1CCN(c2nc(C3=C(c4c[nH]c5ccccc45)C(=O)NC3=O)c3ccccc3n2)CC1 [Sotrastaurin] | 9
Nc1nc(N)c2nc(-c3cccc(O)c3)c(-c3cccc(O)c3)nc2n1 [TG-100-115] | 12
Clc1cccc(Cl)c1CSc1nnc(-c2cnccn2)s1 [Yoda1] | 38
COc1ccc2c(c1)CCC1C2CCC2(C)C(NCCCCCCN3C(=O)C=CC3=O)CCC12 (centres unmarked) [U-73122] | 16
CC(=O)Nc1cccc(-n2c(=O)n(C3CC3)c(=O)c3c(Nc4ccc(I)cc4F)n(C)c(=O)c(C)c32)c1 [Trametinib] | 7
Cc1ccc(NC(=O)c2ccc(CN3CCN(C)CC3)cc2)cc1Nc1nccc(-c2cccnc2)n1 [Imatinib mesylate] | 2
CN(C)CCOc1ccc(-c2nc(-c3ccncc3)c(-c3ccc4c(c3)CC/C4=N\O)[nH]2)cc1 [SB590885] | 4

---

TEST METHOD NOTES: in vitro
MEASUREMENT CONTEXT: human
// reported hemolysis at 48 h, 5 x P. falciparum 3D7-IC50 per item
EXPERIMENTAL READOUT: hemolysis at 48 h, 5 x P. falciparum 3D7-IC50 (%)

STRUCTURE NOTATION | UNIT OF MEASURE | RESULT VALUE
N#CC(=C(N)Sc1ccccc1N)C(C#N)=C(N)Sc1ccccc1N | % | 9
CNC(=O)c1cc(Oc2ccc(NC(=O)Nc3ccc(Cl)c(C(F)(F)F)c3)cc2)ccn1 | % | 16
C[C@@H](Oc1cc(-c2cnn(C3CCNCC3)c2)cnc1N)c1c(Cl)ccc(F)c1Cl | % | 9
